- Experiment Notes: Theacrine-caffeine interaction study: single oral dose plasma pharmacokinetics (LC-MS/MS, noncompartmental)
- Assay type: in vivo, human
- Condition Notes: both sexes, human, plasma, po, 125 mg, Cmax, theacrine in plasma; Condition 2: Theacrine 125 mg single oral dose; dose-adjusted, mean ± SD
- Protocol: Theacrine pharmacokinetics in humans has not been systematically characterized. Therefore, one purpose of this study, among others, was to determine theacrine pharmacokinetics and dose-linearity following oral administration in humans. […] Test Visit Procedures. […] In addition, respiratory rate was counted in one minute and body temperature was measured using an ear scanning thermometer (dual readings taken at each time). […]

>  <Structure Smiles String>
Cn1c(=O)c2c(n(C)c1=O)n(C)c(=O)n2C

>  <Output Unit>
ng/mL/mg

>  <dose-adjusted Cmax>
25.6

$$$$
